conditions: 298.15 K, Pendant drop shape
Answer each item with its documented surface tension liquid-gas.
Give bare numbers, in mN/m.

Example molecules with recorded surface tension liquid-gas:
>  <Molecule>
Cn1cc[n+](CCCCCCO)c1.[Cl-] [3-(6-hydroxyhexyl)-1-methylimidazolium chloride]

>  <surface tension liquid-gas / mN/m>
49.95

$$$$
>  <Molecule>
CCn1cc[n+](CCCCCCO)c1.[Cl-] [1-ethyl-3-(6-hydroxyhexyl)-1H-imidazolium chloride]

>  <surface tension liquid-gas / mN/m>
42.32

$$$$
>  <Molecule>
CCCCn1cc[n+](CCCCCCO)c1.[Cl-] [1-butyl-3-(6-hydroxyhexyl)-1H-imidazolium chloride]

>  <surface tension liquid-gas / mN/m>
32.05

$$$$

[Q] // query surface tension liquid-gas value for entry OCCCCCCn1cc[nH+]c1.[Cl-] [1-(6-hydroxyhexyl)imidazolium chloride]
[A] 51.25

----------
Answer each item with its documented refractive index.
assay: refractive index (Na D-line) (dimensionless); settings: 318.15 K; 101.33 kPa; Liquid; Standard Abbe refractometry
Answers are plain numbers.

Example compounds with recorded refractive index:
>  <Compound>
Cn1cc[n+](CCCCCCO)c1.[Cl-] [3-(6-hydroxyhexyl)-1-methylimidazolium chloride]

>  <refractive index>
1.5041

$$$$
>  <Compound>
OCCCCCCn1cc[nH+]c1.[Cl-] [1-(6-hydroxyhexyl)imidazolium chloride]

>  <refractive index>
1.5028

$$$$

For each of the compounds below, state refractive index.
1. CCCCn1cc[n+](CCCCCCO)c1.[Cl-] [1-butyl-3-(6-hydroxyhexyl)-1H-imidazolium chloride]
2. CCn1cc[n+](CCCCCCO)c1.[Cl-] [1-ethyl-3-(6-hydroxyhexyl)-1H-imidazolium chloride]

[A]
[1.5067, 1.505]

----------
details: 313.15 K; 101.33 kPa; Liquid; Vibrating tube method
Answer each item with its documented mass density.
One number for each entry, in kg/m3.

Example compounds with recorded mass density:
>  <Compound>
CCn1cc[n+](CCCCCCO)c1.[Cl-] [1-ethyl-3-(6-hydroxyhexyl)-1H-imidazolium chloride]

>  <Unit Symbol>
kg/m3

>  <mass density>
1096.23

$$$$
>  <Compound>
OCCCCCCn1cc[nH+]c1.[Cl-] [1-(6-hydroxyhexyl)imidazolium chloride]

>  <Unit Symbol>
kg/m3

>  <mass density>
1130.53

$$$$
>  <Compound>
CCCCn1cc[n+](CCCCCCO)c1.[Cl-] [1-butyl-3-(6-hydroxyhexyl)-1H-imidazolium chloride]

>  <Unit Symbol>
kg/m3

>  <mass density>
1057.85

$$$$

Then there is this compound:
[Q] // query mass density value for entry Cn1cc[n+](CCCCCCO)c1.[Cl-] [3-(6-hydroxyhexyl)-1-methylimidazolium chloride]
[A] 1113.91

----------
details: 333.15 K; 101.33 kPa; Liquid; Vibrating tube method
Answer each item with its documented mass density.
Give bare numbers, in kg/m3.

Example molecules with recorded mass density:
>  <Molecule>
CCCCn1cc[n+](CCCCCCO)c1.[Cl-] [1-butyl-3-(6-hydroxyhexyl)-1H-imidazolium chloride]

>  <Unit Symbol>
kg/m3

>  <Measured Number>
1047.18

$$$$
>  <Molecule>
OCCCCCCn1cc[nH+]c1.[Cl-] [1-(6-hydroxyhexyl)imidazolium chloride]

>  <Unit Symbol>
kg/m3

>  <Measured Number>
1118.72

$$$$
>  <Molecule>
CCn1cc[n+](CCCCCCO)c1.[Cl-] [1-ethyl-3-(6-hydroxyhexyl)-1H-imidazolium chloride]

>  <Unit Symbol>
kg/m3

>  <Measured Number>
1085.63

$$$$

Then there is this molecule:
[Q] // query mass density value for entry Cn1cc[n+](CCCCCCO)c1.[Cl-] [3-(6-hydroxyhexyl)-1-methylimidazolium chloride]
[A] 1103.4

----------
settings: 338.15 K; 101.33 kPa; Liquid
Answer each item with its documented viscosity.
Numbers only, in mPa·s.

Example molecules with recorded viscosity:
>  <Molecule>
OCCCCCCn1cc[nH+]c1.[Cl-] [1-(6-hydroxyhexyl)imidazolium chloride]

>  <Result Type>
viscosity

>  <Unit Symbol>
mPa·s

>  <Measured Number>
60.7

$$$$
>  <Molecule>
CCn1cc[n+](CCCCCCO)c1.[Cl-] [1-ethyl-3-(6-hydroxyhexyl)-1H-imidazolium chloride]

>  <Result Type>
viscosity

>  <Unit Symbol>
mPa·s

>  <Measured Number>
84.7

$$$$
>  <Molecule>
CCCCn1cc[n+](CCCCCCO)c1.[Cl-] [1-butyl-3-(6-hydroxyhexyl)-1H-imidazolium chloride]

>  <Result Type>
viscosity

>  <Unit Symbol>
mPa·s

>  <Measured Number>
110.8

$$$$

Then there is this molecule:
[Q] // query viscosity value for entry Cn1cc[n+](CCCCCCO)c1.[Cl-] [3-(6-hydroxyhexyl)-1-methylimidazolium chloride]
[A] 75.7

----------
settings: 328.15 K; 101.33 kPa; Liquid
Result Type: viscosity (mPa·s)
Give bare numbers, in mPa·s.

>  <Compound>
OCCCCCCn1cc[nH+]c1.[Cl-] [1-(6-hydroxyhexyl)imidazolium chloride]

>  <viscosity / mPa·s>
91.4

$$$$

For each of the compounds below, state viscosity.
1. Cn1cc[n+](CCCCCCO)c1.[Cl-] [3-(6-hydroxyhexyl)-1-methylimidazolium chloride]
2. CCn1cc[n+](CCCCCCO)c1.[Cl-] [1-ethyl-3-(6-hydroxyhexyl)-1H-imidazolium chloride]

[A]
1. 116.6
2. 132.2

[Q] // query viscosity value for entry CCCCn1cc[n+](CCCCCCO)c1.[Cl-] [1-butyl-3-(6-hydroxyhexyl)-1H-imidazolium chloride]
[A] 169.4

----------
assay: refractive index (Na D-line) (dimensionless); details: 328.15 K; 101.33 kPa; Liquid; Standard Abbe refractometry
Answer each item with its documented refractive index.
Answers are plain numbers.

Example compounds with recorded refractive index:
>  <Compound>
CCn1cc[n+](CCCCCCO)c1.[Cl-] [1-ethyl-3-(6-hydroxyhexyl)-1H-imidazolium chloride]

>  <refractive index>
1.5024

$$$$
>  <Compound>
Cn1cc[n+](CCCCCCO)c1.[Cl-] [3-(6-hydroxyhexyl)-1-methylimidazolium chloride]

>  <refractive index>
1.5015

$$$$
>  <Compound>
CCCCn1cc[n+](CCCCCCO)c1.[Cl-] [1-butyl-3-(6-hydroxyhexyl)-1H-imidazolium chloride]

>  <refractive index>
1.5041

$$$$

Then there is this compound:
[Q] // query refractive index value for entry OCCCCCCn1cc[nH+]c1.[Cl-] [1-(6-hydroxyhexyl)imidazolium chloride]
[A] 1.5002

----------
assay: refractive index (Na D-line) (dimensionless); conditions: 313.15 K; 101.33 kPa; Liquid; Standard Abbe refractometry
Result Type: refractive index
Numbers only.

Example compounds with recorded refractive index:
>  <Compound>
OCCCCCCn1cc[nH+]c1.[Cl-] [1-(6-hydroxyhexyl)imidazolium chloride]

>  <refractive index>
1.5041

$$$$
>  <Compound>
Cn1cc[n+](CCCCCCO)c1.[Cl-] [3-(6-hydroxyhexyl)-1-methylimidazolium chloride]

>  <refractive index>
1.5054

$$$$
>  <Compound>
CCn1cc[n+](CCCCCCO)c1.[Cl-] [1-ethyl-3-(6-hydroxyhexyl)-1H-imidazolium chloride]

>  <refractive index>
1.5063

$$$$

[Q] // query refractive index value for entry CCCCn1cc[n+](CCCCCCO)c1.[Cl-] [1-butyl-3-(6-hydroxyhexyl)-1H-imidazolium chloride]
[A] 1.508

----------
conditions: 303.15 K; 101.33 kPa; Liquid; Vibrating tube method
Result Type: mass density (kg/m3)
Numbers only, in kg/m3.

>  <Compound>
CCCCn1cc[n+](CCCCCCO)c1.[Cl-] [1-butyl-3-(6-hydroxyhexyl)-1H-imidazolium chloride]

>  <Unit Symbol>
kg/m3

>  <Measured Number>
1063.33

$$$$

For each of the compounds below, state mass density.
1. Cn1cc[n+](CCCCCCO)c1.[Cl-] [3-(6-hydroxyhexyl)-1-methylimidazolium chloride]
2. OCCCCCCn1cc[nH+]c1.[Cl-] [1-(6-hydroxyhexyl)imidazolium chloride]
3. CCn1cc[n+](CCCCCCO)c1.[Cl-] [1-ethyl-3-(6-hydroxyhexyl)-1H-imidazolium chloride]

[A]
[1119.49, 1136.59, 1101.74]

----------
conditions: 308.15 K; 101.33 kPa; Liquid; Vibrating tube method
Answer each item with its documented mass density.
Give bare numbers, in kg/m3.

Example compounds with recorded mass density:
>  <Compound>
Cn1cc[n+](CCCCCCO)c1.[Cl-] [3-(6-hydroxyhexyl)-1-methylimidazolium chloride]

>  <Unit Symbol>
kg/m3

>  <mass density>
1116.65

$$$$
>  <Compound>
CCCCn1cc[n+](CCCCCCO)c1.[Cl-] [1-butyl-3-(6-hydroxyhexyl)-1H-imidazolium chloride]

>  <Unit Symbol>
kg/m3

>  <mass density>
1060.6

$$$$
>  <Compound>
OCCCCCCn1cc[nH+]c1.[Cl-] [1-(6-hydroxyhexyl)imidazolium chloride]

>  <Unit Symbol>
kg/m3

>  <mass density>
1133.52

$$$$

[Q] // query mass density value for entry CCn1cc[n+](CCCCCCO)c1.[Cl-] [1-ethyl-3-(6-hydroxyhexyl)-1H-imidazolium chloride]
[A] 1098.91
